target: T1, neuropilin-1 (NRP1) on HEK293 cells overexpressing NRP1 (UniProt O14786 22-923, limits assumed)
T1 construct: whole, on cells
test description: flow cytometry, HEK293-NRP1 vs HEK293
readout kind: 100 nM FACS (MFI Ratio)
Response field accepts a number only; no unit should be typed.

>>> recorded_measurement("NRP1-45 (VHH) VHH: EVQLVESGGGLVQPGGSLRLSCAASGRTFNRYPMGWFRQAPGKEREWVAAAHWSGGRMWYADSVKGRFTISADNSKNTAYLQMNSLKPEDTAVYYCAIHTSREIWGQGTLVTVSS")
6.6
>>> recorded_measurement("NRP1-276 (antibody, IgG2, V domains shown) VH: EVQLLESGGGLVQPGGSLRLSCAASGFPFTSYAMSWVRQAPGKGLEWVSAISSSGTGTYYADSVKGRFTISRDNSKNTLYLQMNSLRAEDTAVYYCARLKRGGTNLVRKATRYQFYGMDAWGQGTLVTVSS VL: DIQMTQSPSSLSASVGDRVTITCRASQSVSRYLNWYQQKPGKAPKLLIYGASTLQAGVPSRFSGSGSGTDFTLTISSLQPEDFATYYCQQSYTTPLTFGGGTKVEIK")
2.6

Read the next record carefully.
What measured 100 nM FACS (MFI Ratio) goes with NRP1-75 (VHH) VHH: EVQLVESGGGLVQPGGSLRLSCAASGRTISVYAMGWFRQAPGKERELVAAINRSGKSTYYADSVKGRFTISADNSKNTAYLQMNSLKPEDTAVYYCAADRMYRPVGNQYDWGQGTLVTVSS ?
4.2

Sourced from patent US20230265198A1
